# Assay System: cynomolgus monkey ABCC1 (UniProt Q864R9 1-1531)
# Sequence (Q864R9 whole entry): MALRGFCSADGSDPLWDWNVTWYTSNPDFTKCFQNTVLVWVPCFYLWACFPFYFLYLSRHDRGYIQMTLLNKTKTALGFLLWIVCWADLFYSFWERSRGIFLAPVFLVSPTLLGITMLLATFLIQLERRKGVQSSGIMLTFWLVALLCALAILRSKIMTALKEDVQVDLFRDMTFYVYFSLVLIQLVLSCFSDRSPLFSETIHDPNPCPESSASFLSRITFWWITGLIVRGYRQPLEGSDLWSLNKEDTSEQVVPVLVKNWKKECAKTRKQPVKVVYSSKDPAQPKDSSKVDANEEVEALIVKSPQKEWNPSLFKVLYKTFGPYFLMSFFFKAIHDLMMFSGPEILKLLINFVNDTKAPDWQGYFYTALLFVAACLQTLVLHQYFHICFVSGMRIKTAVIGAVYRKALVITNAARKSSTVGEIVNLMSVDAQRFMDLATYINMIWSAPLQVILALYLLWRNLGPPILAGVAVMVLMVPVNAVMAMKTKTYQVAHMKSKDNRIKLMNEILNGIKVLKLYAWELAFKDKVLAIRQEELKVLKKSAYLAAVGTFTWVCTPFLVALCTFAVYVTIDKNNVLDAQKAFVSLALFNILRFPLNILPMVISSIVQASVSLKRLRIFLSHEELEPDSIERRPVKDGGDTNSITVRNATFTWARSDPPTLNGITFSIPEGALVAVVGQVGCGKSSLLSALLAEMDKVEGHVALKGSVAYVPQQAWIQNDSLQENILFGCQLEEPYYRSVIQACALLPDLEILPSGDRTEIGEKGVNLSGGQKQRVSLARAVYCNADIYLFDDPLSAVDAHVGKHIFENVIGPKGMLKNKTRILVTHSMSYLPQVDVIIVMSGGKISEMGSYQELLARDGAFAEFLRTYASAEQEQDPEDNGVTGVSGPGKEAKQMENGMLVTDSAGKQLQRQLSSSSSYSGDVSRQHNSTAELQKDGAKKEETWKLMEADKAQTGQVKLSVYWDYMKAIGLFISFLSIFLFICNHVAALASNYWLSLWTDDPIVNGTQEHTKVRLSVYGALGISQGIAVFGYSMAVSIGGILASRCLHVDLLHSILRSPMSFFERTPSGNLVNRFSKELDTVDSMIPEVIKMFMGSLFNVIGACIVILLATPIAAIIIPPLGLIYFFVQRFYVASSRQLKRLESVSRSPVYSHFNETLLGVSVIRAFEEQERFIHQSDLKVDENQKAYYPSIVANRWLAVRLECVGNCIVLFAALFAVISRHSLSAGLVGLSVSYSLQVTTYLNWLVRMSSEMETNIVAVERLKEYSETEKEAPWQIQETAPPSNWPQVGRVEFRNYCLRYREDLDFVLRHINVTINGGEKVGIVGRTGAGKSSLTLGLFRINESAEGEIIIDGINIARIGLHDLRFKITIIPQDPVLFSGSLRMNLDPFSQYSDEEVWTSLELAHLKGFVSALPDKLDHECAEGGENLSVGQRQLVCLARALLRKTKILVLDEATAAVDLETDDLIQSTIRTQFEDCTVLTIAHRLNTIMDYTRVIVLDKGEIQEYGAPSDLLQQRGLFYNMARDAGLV
# Measurement Description: FACS cell binding
pKd: −log10 of the molar value.
pKd overview
Endpoint Name: pKd

{"columns": ["Binder", "Value"],
 "data": [
  ["C1.861.hu21 (antibody, V domains shown) VH: EVQLVESGGGLIQPGGSLRLSCAVSGFSLTSNGVTWVRQPPGKGLEWIAAISSGGNIYYNSAVKSRLTISRDTSKNTVYLQMNSLRAEDTAVYFCTRARGTTTAYVMDAWGQGTTVTVSS VL: DVQLTQSPSSLSASVGDRVTITCKSSQSLLYSGNQKNYLAWYQQKPGKSPKLLIYWASTRQSGVPSRFSGSGSGTDFTLTISSLQPEDVATYYCQQYYDVLMNMFGGGTKLEIK", 7.43],
  ["C1.844.hu21 (antibody, V domains shown) VH: EVQLVESGGGLIQPGGSLRLSCAVSGFSLTSNGVIWVRQPPGKGLEWIAAISSGGNIYYNSGLKSRLTISRDTSKNTVYLQMNSLRAEDTAVYYCTRARGTTTAYVMDAWGQGTLVTVSS VL: DIVMTQSPDSLAVSLGERATINCKSSQSLLYSVNQKNYLAWYQQKPGQSPKLLIYWASTRQSGVPDRFSGSGSGTDFTLTISSLQAEDVAVYYCQQYYDTLMKMFGAGTKLELK", 7.08],
  ["C1.861.hu41 (antibody, V domains shown) VH: EVQLQESGPGLVKPSETLSLTCTVSGFSLTSSGVTWVRQPPGKGLEWIAAISSGGNIYYNSAVKSRLTISRDTSKNQVSLKLSSVTAADTAVYYCTRARGTTTAYVMDAWGQGTTVTVSS VL: DVQLTQSPSSLSASVGDRVTITCKSSQSLLYSGNQKNYLAWYQQKPGKSPKLLIYWASTRQSGVPSRFSGSGSGTDFTLTISSLQPEDVATYYCQQYYDVLMNMFGGGTKLEIK", 7.19]
]}
